Each entry below carries its reported melting point.
Experimental endpoint: melting point

Compound: NC(=O)c1cnn2cccc2c1NC1CCCCCC1
Recorded value: 279 °C

Compound: O=C(O)C1Cc2c(c(Cl)cc3c(-c4c(F)cccc4F)noc23)O1 (stereo not given)
Recorded value: 240 to 241 °C

Compound: CNC(Cc1ccccc1)c1nc(C(=O)NCc2ccccc2)no1 (stereo not given)
Recorded value: 128 °C

Compound: Cc1cccc2oc(C(=O)Nc3ccc(-c4ccc(S(=O)(=O)NC(C(=O)O)C(C)C)cc4)cc3)c(C)c12 (stereo not given)
Recorded value: 250 to 252 °C

Compound: CC1CC2=C(OC(NC=N)C2)c2ccc(=O)[nH]c21 (stereo not given)
Recorded value: > 250 °C

Compound: COC(=O)c1ccc(-n2cc(-c3ccc4c(c3)C(C)(C)CCC4(C)C)cn2)cc1
Recorded value: 229 to 232 °C

Compound: CCNc1cc(NS(=O)(=O)c2ccc(C(C)(C)C)cc2)nc(NCC)n1
Recorded value: 316 to 318 °C

Compound: CC(O)c1ccc2c(c1)CCC(=O)N2 (stereo not given)
Recorded value: 174 °C

Compound: CCCC(CCC)Nc1cc(C(=O)O)ccc1N1C(=O)CCC1(CO)CO
Recorded value: 227 to 229 °C

Compound: COc1cccc(C=C2NC(=O)NC2=O)c1OCc1ccccc1
Recorded value: 210 to 212 °C

----------
Experimental endpoint: melting point

Smiles: Cc1ccccc1C(=O)Nc1ccc(C(=O)N2CCc3cn(C)nc3-c3sccc32)cc1
Recorded value: 257 to 260 °C
//
Smiles: COC(=O)COc1ccc(NC(=O)OCCO)cc1
Recorded value: 85.5 to 87.5 °C
//
Smiles: COc1ccc(-c2nc3ccc(CBr)cc3o2)cc1
Recorded value: 137 to 138 °C
//
Smiles: CCOC(=O)N1CCC(n2cnc(-c3ccc(F)cc3)c2-c2ccnc(NC)n2)CC1
Recorded value: 205 to 206 °C
//
Smiles: CC(C)(C)c1cccc(S(=O)(=O)n2c(Cc3ccc(C(=O)O)s3)cc3cc(C(F)(F)F)ccc32)c1
Recorded value: 110 °C

----------
Compound: CCCc1ccc2oc(CCc3ccc(OC)cc3)c(C)c2c1O
melting point: 77 to 79 °C

Compound: CC(C)c1cccc(C(C)C)c1NC(=O)CNC(c1ccccc1)c1cccc(CO)c1 (centres undefined)
melting point: 57 to 62 °C

Compound: Cc1nc(N2CCN(Cc3ccc(C(F)(F)F)cc3)C2=O)sc1C(=O)NCc1ccccc1
melting point: 127 to 128 °C

Compound: CN(C)c1ccc(C(c2ccccc2)c2c(C(=O)O)[nH]c3ccccc23)cc1 (centres undefined)
melting point: 72 to 78 °C

Compound: CCCCCCCCOc1cc(-c2cccc(Cl)c2)c(OCC(=O)O)c(-c2cccc(Cl)c2)c1
melting point: 113 to 116 °C

Compound: CN1CCN(c2ncc(-c3ccc(Cl)cc3Cl)c(N)n2)CC1
melting point: 137 °C

Compound: COc1cc2c(cc1O)/C(=N/OCc1ccc([N+](=O)[O-])cc1)CCC2
melting point: 125 to 127 °C

Compound: COc1ccc(CN2CCC3(CCc4c3n(C)c3ccccc43)CC2)cc1
melting point: 39 to 40 °C

Compound: Cn1cc(CS(C)(=O)=O)c(=O)c2ccccc21
melting point: 200 to 201 °C

----------
Experimental endpoint: melting point

Molecule: COC(=O)CCCCCCCCCCCO
Recorded value: 33.5 to 35 °C
//
Molecule: COC(=O)Cc1ccc(CN2CCN(C(c3ccccc3)c3ccc(Cl)cc3)CC2)cc1 (stereo unspecified)
Recorded value: 113 to 115 °C
//
Molecule: Cc1ccc(S(=O)(=O)OC(=O)c2ccc(C(=O)OS(=O)(=O)c3ccc(C)cc3)cc2)cc1
Recorded value: 170 to 176 °C
//
Molecule: O=C1OCC2Cc3cccc(F)c3OC12 (stereo unspecified)
Recorded value: 75.5 to 77.5 °C
//
Molecule: COc1ccc2c(c1)C(CC(=O)O)=C(C)C2=Cc1ccc(S(N)(=O)=O)cc1
Recorded value: 224 to 225 °C
//
Molecule: Nc1nc(=O)n(C2CC(O)C(CNC(=O)Cc3ccccc3Br)O2)cc1Br (stereo unspecified)
Recorded value: 164 to 167 °C
//
Molecule: COC(=O)c1ccc2c(CCC=O)nn(C)c2c1
Recorded value: 80 to 83 °C
//
Molecule: CC1CC(N)=NN1c1cccc(Cl)n1 (stereo unspecified)
Recorded value: 105 to 107 °C
//
Molecule: CCCCCc1nc2cnc3ccccc3c2[nH]1
Recorded value: 142 to 143 °C
//
Molecule: Oc1ccc(O)c2c1CCCC2
Recorded value: 213 to 215 °C
//
Molecule: OCc1cn(Cc2ccccc2)c(-c2ccc(OCc3ccccc3)cc2)n1
Recorded value: 129 to 131 °C

----------
Each entry below carries its reported melting point.

Compound: COc1cccc2sc(-c3ccc(C)cc3)nc12
melting point: 98 to 100 °C
--
Compound: COc1ccc(C(N)=O)c(N)c1
melting point: 152 to 156 °C
--
Compound: CC(C)(C)OC(=O)Cn1c(=O)c(-c2c(Cl)cccc2Cl)cc2cnc(N)nc21
melting point: 171 to 173 °C
--
Compound: CSC(=S)Nc1ccc(C)cc1C(=O)O
melting point: 199 °C
--
Compound: O=C1N(Cc2ccc(C(F)(F)F)o2)c2ccc(F)cc2C1(CO)c1cc2c(cc1O)OCO2 (stereo not drawn)
melting point: 92 to 95 °C
--
Compound: COCCNc1cc(Sc2ccc(Cl)cc2)nc(-c2ccc(OC)cc2)n1
melting point: 117 to 118 °C
--
Compound: Cc1ncccc1C(N)=O
melting point: 160 to 163 °C
--
Compound: BrC(c1ccccc1)(c1ccccc1)C1(c2ccccc2)OCCO1
melting point: 206 °C
--
Compound: CC(C)CC(NC(=O)C(C)S)C(=O)O (stereo not drawn)
melting point: 77 to 84 °C
--
Compound: COc1ccc(Nc2nc(-c3ccc(OC)c(OC)c3)cs2)nc1
melting point: 222 to 225 °C
--
Compound: N#Cc1cccc2c1CC(=NN)c1cccc(F)c1S2
melting point: 203 to 206 °C
--
Compound: Cc1ccc(Oc2cccc(NC(=O)c3ccn4c3CSC4c3cccnc3)c2)cc1 (stereo not drawn)
melting point: 110 °C
--
Compound: CC(C)(C)CC(C)(C)n1scc(Cl)c1=O
melting point: 137 to 140 °C
--
Compound: CC(=O)S[C@H]1CO[C@@H](c2ccccc2)OC1
melting point: 94 to 95 °C
--
Compound: N=C(NO)c1ccc(-c2cccc(-c3cn4cc(C(=N)NO)ccc4n3)c2)cc1
melting point: 252 to 254 °C
--
Compound: NC(=O)Nc1nc2n(n1)Cc1ccccc1-2
melting point: 261 to 263 °C
--
Compound: C=C(COc1cc(Cl)ccc1C=NNP(=O)(OCC)OCC)C(C)C
melting point: 103 to 106 °C
--
Compound: N#CC(C(=O)c1ccc(Cl)cc1)=C1CCCN1
melting point: 156 to 158 °C
--
Compound: Cc1nn(-c2ccccc2)c(C)c1CC#N
melting point: 69 to 70 °C
--
Compound: CCOC(=O)c1ccc(S(C)(=O)=O)nc1C(F)(F)F
melting point: 70 to 72 °C
--
Compound: Cc1nnc(-c2ccc3ncn(C4CCN(C(=O)c5ccccc5)CC4)c3c2)o1
melting point: 158 to 159 °C
--
Compound: CCOC(=O)/C=C/c1ccc(OCCOC)cc1Oc1ncc(C(F)(F)F)cc1Cl
melting point: 78.2 to 78.5 °C
--
Compound: CCOC(=O)C(OCC)C(=O)Nc1ccc(Br)cc1 (stereo not drawn)
melting point: 62 to 64 °C

----------
Each entry below carries its reported melting point.

Compound: O=C(O)Cc1cn(C(=O)c2cncs2)c2ccc(Cl)cc12
melting point: 175 to 180 °C

Compound: CCC12CCC3C4CCC(=O)C=C4C(C)CC3C1CCC2O (stereo unspecified)
melting point: 127 to 130 °C

Compound: CN(c1ccc(C2CCCCC2)cc1)c1nc(=O)c2cccnc2s1
melting point: 192 to 195 °C

Compound: CCOC(=O)c1nccn1Cc1ccc(Cl)cc1N
melting point: 94 to 96 °C

Compound: CC(O)CNC1(F)C=CC(N)=C([N+](=O)[O-])C1 (stereo unspecified)
melting point: 97 °C

Compound: COc1ccc2c(c1)C(=O)OC2=O
melting point: 89 to 94 °C

----------
Each entry below carries its reported melting point.
Experimental endpoint: melting point (°C)

Smiles: N#Cc1cc(=O)n(CCc2ccccc2)s1
Recorded value: 228
//
Smiles: O=C(NNc1ccccc1)c1ccccc1O
Recorded value: 259
//
Smiles: CC(C)c1ccc(S(=O)(=O)n2c(Cc3ccc(C(=O)O)cc3)cc3cc(Cl)ccc32)cc1
Recorded value: 192
//
Smiles: O=Cc1cc(C(=O)c2ccccc2)ccc1[N+](=O)[O-]
Recorded value: 96.7
